From: PubChem BioAssay (NCATS)

# ASSAY PROTOCOL: Quantitative High-Throughput drug screen in 47 multiple myeloma cell lines against the NCATS MIPE library collection: JIM1_ECACC cell viability assay (AID 1918964)
# ASSAY CONDITIONS: JIM1 myeloma viability, CellTiter-Glo ATP luminescence, 48 h; series mostly up to 45.8 µM
Results filed as inconclusive are left out. Active and inactive are the calls of the source. Calls follow the shape of the dose curve; as a rule, active = well fitted cell-killing curve with a large enough effect; inconclusive = small, poorly fitted or top-dose-only effect, or effect the other way; inactive = no such curve, though single readings can be large or run the other way.
Reply using exactly one outcome from True = active, False = inactive

input: Hi, do you know how Oc1c(Cl)cc(Cl)c2cccnc12 came out in this test?
output: True

input: Hi, do you know how CN(C)CCc1c[nH]c2ccc(CS(=O)(=O)N3CCCC3)cc12 came out in this test?
output: False

input: Hi, do you know how CC(N)C12CC3CC(CC(C3)C1)C2 (configuration not stated) came out in this test?
output: False

input: Hi, do you know how Cc1ccnc2c1NC(=O)c1cccnc1N2C1CC1 came out in this test?
output: False

input: Hi, do you know how CC(C)OC(=O)C(C(=O)OC(C)C)=C1SC=CS1 came out in this test?
output: False

input: Hi, do you know how Nc1nc(F)nc2c1ncn2[C@@H]1O[C@H](CO)[C@@H](O)[C@@H]1O came out in this test?
output: True

input: Hi, do you know how C[C@@H](CN1CC(=O)NC(=O)C1)N1CC(=O)NC(=O)C1 came out in this test?
output: False
